target_system: FZD7 cysteine-rich domain (CRD), MYC-tagged and GPI-anchored on CHO cells (human, UniProt O75084 45-169)
assay_procedure: flow cytometry, CHO-CRD cells;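 further: flow cytometry of Fab binding to CHO cells overexpressing a Frizzled CRD, with binding defined as median fluorescence over twice that of CHO cells lacking any Frizzled CRD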
Criterion: median fluorescence strictly under 40. Met: True. Not met: False.

Solved entries (count: 6):
Fab-2904 (Fab, V domains shown, Fab; also called Fv-2904) VH: EVQLVESGGGLVQPGGSLRLSCAASGFNIYSYSMHWVRQAPGKGLEWVAYISSSYGYTSYADSVKGRFTISADTSKNTAYLQMNSLRAEDTAVYYCARSWYAWAMDYWGQGTLVTVSS VL: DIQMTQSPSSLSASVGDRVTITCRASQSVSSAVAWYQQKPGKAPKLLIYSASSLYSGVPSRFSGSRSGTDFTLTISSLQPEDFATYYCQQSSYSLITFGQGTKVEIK	False
Fab-2912 (Fab, V domains shown, Fab; also called Fv-2912) VH: EVQLVESGGGLVQPGGSLRLSCAASGFNISYSYIHWVRQAPGKGLEWVASISSSSGYTSYADSVKGRFTISADTSKNTAYLQMNSLRAEDTAVYYCARTVRGSKKPYFSGWAMDYWGQGTLVTVSS VL: DIQMTQSPSSLSASVGDRVTITCRASQSVSSAVAWYQQKPGKAPKLLIYSASSLYSGVPSRFSGSRSGTDFTLTISSLQPEDFATYYCQQFYFPYLITFGQGTKVEIK	False
Fab-2927 (Fab, V domains shown, Fab; also called Fv-2927) VH: EVQLVESGGGLVQPGGSLRLSCAASGFNIYYSSMHWVRQAPGKGLEWVASIYPSYGYTSYADSVKGRFTISADTSKNTAYLQMNSLRAEDTAVYYCARYGYYGFDYWGQGTLVTVSS VL: DIQMTQSPSSLSASVGDRVTITCRASQSVSSAVAWYQQKPGKAPKLLIYSASSLYSGVPSRFSGSRSGTDFTLTISSLQPEDFATYYCQQWGSHGYLITFGQGTKVEIK	True
Fab-2898 (Fab, V domains shown, Fab; also called Fv-2898) VH: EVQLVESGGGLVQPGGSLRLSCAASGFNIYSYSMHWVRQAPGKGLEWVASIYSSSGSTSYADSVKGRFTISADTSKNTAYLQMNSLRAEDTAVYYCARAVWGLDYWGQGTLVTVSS VL: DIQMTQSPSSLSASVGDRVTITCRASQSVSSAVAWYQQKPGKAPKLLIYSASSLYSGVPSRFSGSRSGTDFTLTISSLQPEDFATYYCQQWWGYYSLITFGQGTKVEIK	True
Fab-2929 (Fab, V domains shown, Fab; also called Fv-2929) VH: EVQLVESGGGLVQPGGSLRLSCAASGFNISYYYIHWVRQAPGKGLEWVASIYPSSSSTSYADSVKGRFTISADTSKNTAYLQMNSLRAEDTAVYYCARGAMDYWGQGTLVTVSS VL: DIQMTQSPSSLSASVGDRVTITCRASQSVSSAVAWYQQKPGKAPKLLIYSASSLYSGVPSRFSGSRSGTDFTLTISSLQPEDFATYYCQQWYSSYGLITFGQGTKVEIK	True
Fab-2903 (Fab, V domains shown, Fab; also called Fv-2903) VH: EVQLVESGGGLVQPGGSLRLSCAASGFNLSYYYIHWVRQAPGKGLEWVASIYPYSSYTSYADSVKGRFTISADTSKNTAYLQMNSLRAEDTAVYYCARGAIDYWGQGTLVTVSS V domain: DIQMTQSPSSLSASVGDRVTITCRASQSVSSAVAWYQQKPGKAPKLLIYSASSLYSGVPSRFSGSRSGTDFTLTISSLQPEDFATYYCQQWGGGSSLFTFG	True

Decide: median fluorescence of Fab-2910 (Fab, V domains shown, Fab) VH: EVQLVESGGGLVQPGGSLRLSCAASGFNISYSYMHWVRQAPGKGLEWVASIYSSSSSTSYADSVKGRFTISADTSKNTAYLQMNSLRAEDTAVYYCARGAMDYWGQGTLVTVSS VL: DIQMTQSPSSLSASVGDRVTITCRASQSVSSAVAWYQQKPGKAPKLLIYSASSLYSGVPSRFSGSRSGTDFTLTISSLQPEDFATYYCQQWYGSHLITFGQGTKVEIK strictly below 40?
True

Dear reviewer, please state whether Fab-2899 (Fab, V domains shown, Fab; also called Fv-2899) VH: EVQLVESGGGLVQPGGSLRLSCAASGFNLYYYYMHWVRQAPGKGLEWVASIYPSSGSTSYADSVKGRFTISADTSKNTAYLQMNSLRAEDTAVYYCARGALDYWGQGTLVTVSS VL: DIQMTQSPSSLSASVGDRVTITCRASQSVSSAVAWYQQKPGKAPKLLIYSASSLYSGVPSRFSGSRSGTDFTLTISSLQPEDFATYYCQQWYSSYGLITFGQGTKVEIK has median fluorescence strictly beneath 40.
False

I'd appreciate it if you could check whether Fab-2930 (Fab, V domains shown, Fab; also called Fv-2930) VH: EVQLVESGGGLVQPGGSLRLSCAASGFNLSYYYIHWVRQAPGKGLEWVASIYPYSGSTSYADSVKGRFTISADTSKNTAYLQMNSLRAEDTAVYYCARGALDYWGQGTLVTVSS VL: DIQMTQSPSSLSASVGDRVTITCRASQSVSSAVAWYQQKPGKAPKLLIYSASSLYSGVPSRFSGSRSGTDFTLTISSLQPEDFATYYCQQWYGPYLITFGQGTKVEIK has median fluorescence smaller than 40.
True
